# condition.description: Crystal; DTA
Checkbox rule: Normal melting temperature lower than 20 °C = YES; Normal melting temperature not lower than 20 °C = NO.

Answered cases to consult:
compound="CCCCCCCCCCCCCCCC [hexadecane]" assigned_label=YES
compound="CCCCCCCCCCCC [dodecane]" assigned_label=YES
compound="O [water]" assigned_label=YES
compound="C1CCCCC1 [cyclohexane]" assigned_label=YES
compound="CCCCCCCCCCCCCCCCCCCC [eicosane]" assigned_label=NO

Input [Ga] [gallium] ; condition: Normal melting temperature strictly below 20 °C. Does it hold? NO

Input CCCCCCCCCCCCCC [tetradecane] ; condition: Normal melting temperature strictly below 20 °C. Does it hold? YES
